# Test system: MS2 coat protein
# protocol: apparent KD of MS2 coat protein; designed switch direction (-1 OFF switch, 1 ON switch): -1; higher = weaker reporter binding
# condition.details: input ligand: none
Each entry below carries its recorded apparent KD of MS2 coat protein.
Numeric answer only, unit µM assumed.

seq.text | apparent KD of MS2 coat protein, µM
GUCAGCUCGUCAGGAUAUACAUGAGGAUCACCCAUGUGGUCAAUAGCAGCUUCGGCUGCAAUAAUGUAGAAGGGACGAGCUGAC [ENG2/8-E] (Eterna round: R96, puzzle: Exclusion NG 2) | 0.756
AGGCACUAAGGAUAUACAAAGGUGCUGCGUAUGCUAGCCAGACAUGAGGAUCACCCAUGUAGAAGGUAGGAAUA [EX2 B.14] (Eterna round: R97, puzzle: Exclusion 2) | 0.0168
CGGUCCUGAGUGAGGAUAUUGUCAGGCGAAGCCUGCAAGAAGGUACUUGAGGAUCACCCAAGUACGCUCUUGGC [Estimama] (Eterna round: R97, puzzle: Brourd's mod of Exclusion 4) | 0.0168
GCACGGAGUGUAGGAUAUUAGUGCGAUUAGCACUGAGAAGGACAUGAGGAUCACCCAUGUUCCUCAAUAACUCACCUUCCGUGC [Eli exng1 - 043] (Eterna round: R96, puzzle: Exclusion NG 1) | 0.0115
AAAAUGUCAGGAUAUUGUUAGUUUAGUUGUUUGUAUUAGUUCGAGAAGGGACAUGAGGAUCACCCAUGUUAAAA [Ex4 #67] (Eterna round: R97, puzzle: Exclusion 4) | 0.0299

Value lookup for apparent KD of MS2 coat protein; key = CAUUAUUAUCGAGGAUAUCCUAUUGAAAUUCUAGGAGAAGGCGGACUCAACAUGAGGAUCACCCAUGUGGGACGGAUGCUAGGG [Ex NG1 #29] (Eterna round: R96, puzzle: Exclusion NG 1)
0.0178

Value lookup for apparent KD of MS2 coat protein; key = CGUUGGUCAGGAUAUGGUGGGCUGGUCGCGCGGCCGGGUGGCUAGAAGGGACAUGAGGAUCACCCAUGUACGGC [excls4-IX] (Eterna round: R96, puzzle: Exclusion 4)
0.0489

Value lookup for apparent KD of MS2 coat protein; key = AAACAGCAAGGAUAUACGGGCUGUGCUUUUCAUUUCAUACAACAUGAGGAUCACCCAUGUAGAAGGUGCAACAA [Ex2 #4] (Eterna round: R97, puzzle: Exclusion 2)
0.0343

Value lookup for apparent KD of MS2 coat protein; key = ACAAGCUCUGUGGGUGGUGACAUGAGGAUCACCCAUGUUUUGCUCGUCUUGUGGGCCCGGGCCCGCGGCCCGGGCCC [-41.4, -70.3, A 12%] (Eterna round: R97, puzzle: Sensor, turn-off variant 1)
0.978

Value lookup for apparent KD of MS2 coat protein; key = UACUUCUGAGGAUAUACAUAGAUUUACAUGAGGAUCACCCAUGUUCCUCUAUGUAUAAAUGUAGAAGGCAGAAGAU [Mat - Exclusion 5 - JL Mod - D61] (Eterna round: R97, puzzle: Exclusion 5)
0.0167

====

# Test system: MS2 coat protein
# protocol: apparent KD of MS2 coat protein; designed switch direction (-1 OFF switch, 1 ON switch): -1; higher = weaker reporter binding
# condition.details: Eterna round: R95; input ligand: microRNA oligo, concentration not stated
recorded.metric: apparent KD of MS2 coat protein (nM)
Numeric answer only, unit nM assumed.

Check out these entries, answers already filled in.
seq.text | assayed.target | apparent KD of MS2 coat protein (nM)
AUUAUAAUAUAGGAUAUCGAAAUAAUUAUUUAACGAGAAGGAUGAACAUGAGGAUCACCCAUGUGGUAUCAUGG [Mat - Exclusion 6 - JL Mod - D33] (puzzle: Exclusion 6) | MS2 coat protein | 360
GUUGCGUUUGUGAGGAUAUGCUGGUCCUUGGUUCGGCAGAAGGCACAUGAGGAUCACCCAUGUGGUGUUGUUCC [salish99_Bmod_ex4_052] (puzzle: Brourd's mod of Exclusion 4) | MS2 coat protein | 90.5
AUGCUCAUAGGAUAUAGAUUGAUUCACAUGAGGAUCACCCAUGUAAACUCUACUUUUUAACUAGAAGGAUGUUUUU [JR_E5_Sub018] (puzzle: Exclusion 5) | MS2 coat protein | 25.3
GUGACACAUGAGGAUCACCCAUGUGAGGAUAUGAUACUAUGUACUUCGGUACAUAGUAUCAGAAGGCACAGUGA [Ex1-3: 7] (puzzle: Exclusion 1) | MS2 coat protein | 43.2

Turning to the following sequence.
Value lookup for apparent KD of MS2 coat protein; key = AGUAGUAGUAUCCGAUCUUACAUGAGGAUCACCCAUGUUUCUAGACGUGCACGCGAUGCUCGUCAGACUACCAGAUG [salish99_TOv1_r3_053] (puzzle: Sensor v3, turn-off variant 1)
173

====

# Test system: MS2 coat protein
# protocol: apparent KD of MS2 coat protein; designed switch direction (-1 OFF switch, 1 ON switch): -1; higher = weaker reporter binding
# condition.details: input ligand: microRNA oligo, concentration not stated
Each entry below carries its recorded apparent KD of MS2 coat protein.
Numeric answer only, unit nM assumed.

Check out these entries, answers already filled in.
seq.text | apparent KD of MS2 coat protein (nM)
UGUUGUCGCGCAGGAUAUGAGGAUCACCCAUAUAGAGGAUAUGAAAAGAAGGCUCUGAGGAUCACCCAGAAGGGCGGGACAACU [pwkr exNG2 2xF5 2xFMN.23] (Eterna round: R96, puzzle: Exclusion NG 2) | 141
GACAUGAGGAUCACCCAUGUAAGGGAUGAACUUCUGGGUAGCUAGGAUAUGGCUAUAAAGAUGGACCAGAAGGAGCGGACCCUA [Orlaveceat] (Eterna round: R96, puzzle: Exclusion NG 3) | 31.4
ACUGUUUGAUUCCUCUUAUACAUGAGGAUCACCCAUGUUAUCGAGGAUAUGCAUUAGAGUGUUUAGCAGAAGGCGAUGUAAUUG [JR_ExcNG3_Sub033] (Eterna round: R96, puzzle: Exclusion NG 3) | 8.68
UUAAUUAAUUGACUGCAAGAUCAACAUGAGGAUCACCCAUGUGAGGAUAUCAGCUCGAUUAGAGCUGAGAAGGCACAAGCAGUC [ExNG3/16-A1] (Eterna round: R96, puzzle: Exclusion NG 3) | 15
ACAUGUAAUGCAGGAUAUUUGACACAUGAGGAUCACCCAUGUGACCAGAGGAAUUGCUAUGAGUCGAAGAAGGGUAUGUACAUG [Ex NG2 #55] (Eterna round: R96, puzzle: Exclusion NG 2) | 44.7

Value lookup for apparent KD of MS2 coat protein; key = AAAGUCCUAGGAGGAUAUCACCUGCCUAGCACAUGAGAAGGCCUAGGAGACAUGAGGAUCACCCAUGUGUCCUUAGUCGAAAAU [Ensobedi] (Eterna round: R96, puzzle: Exclusion NG 1)
9.59

Value lookup for apparent KD of MS2 coat protein; key = AGAUGGAUUGCUAGAAAACUAGUAAUUCAUCAAUCAAGCACAUGAGGAUCACCCAUGUCUUAGAGUACGUGAGUACA [JL gull wing 9] (Eterna round: R96, puzzle: Sensor v2, turn-off variant 2)
12.5

Value lookup for apparent KD of MS2 coat protein; key = ACAUGAGGAUCACCCAUGUCUGGCUGGUCUGUUCCGGCUGUUGAGGAUAUAGUCCGGUGUUCGCGCUAGAAGGUGAGGGCUGGA [Aenatbe mod 43] (Eterna round: R96, puzzle: Exclusion NG 3)
32.9

Value lookup for apparent KD of MS2 coat protein; key = UUUUUAUAUGAAGGAUAUACUUAACAUGAGGAUCACCCAUGUGGUGUUGUGAGUGAGUGAGUUUAGUAGAAGGUCAAUUCUUUG [JMF's solution 84] (Eterna round: R96, puzzle: Exclusion NG 2)
344

Value lookup for apparent KD of MS2 coat protein; key = CAGUACUGAGGAUAUACAUGAGGAUCACCCAUGUGGUCCAGCUAGGAAACUAGCACGUGUAGAAGGCAGUACUG [Ex3: 840] (Eterna round: R96, puzzle: Exclusion 3)
55.3

Value lookup for apparent KD of MS2 coat protein; key = GGUACUCAAAGAGUACCAAUACGAACAUGAGGAUCACCCAUGUAGGAUAUGCUACUCAAAGAGUAGCAGAAGGAUAUGAUGUAU [Far Half Aptamer v17] (Eterna round: R96, puzzle: Exclusion NG 3)
27.6

Value lookup for apparent KD of MS2 coat protein; key = UAGUUAUUCACAGGAUAUCGCCUCUUAUUACAUGAGGAUCACCCAUGUUUAUUUUGUUACAUGUUCGAGAAGGGUGUAGCCGUU [JR_ExcNG2_Sub045] (Eterna round: R96, puzzle: Exclusion NG 2)
258

Value lookup for apparent KD of MS2 coat protein; key = AAUGUUUGAUACCUUUAAUACAUGAGGAUCACCCAUGUUAUCGAGGAUAUGUAGAAGAGAUGAGAACAGAAGGCGAAGUAAGAG [JR_ExcNG3_Sub097] (Eterna round: R96, puzzle: Exclusion NG 3)
10.5

Value lookup for apparent KD of MS2 coat protein; key = AUUAUAUAGAAAGGAUAUAGAAUAUUAUUUUAACAUGAGGAUCACCCAUGUAACCUUAUGUGUAGCUAGAAGGUUCAUUUAUUA [Title] (Eterna round: R96, puzzle: Exclusion NG 2)
52.5

Value lookup for apparent KD of MS2 coat protein; key = ACGCAUUGCCUUUGGUAGUGCGUAACAUGAGGAUCACCCAUGUAGGAUAUGGUAGGCAAAGCUUACCAGAAGGACAUAAUAAUU [Mat - Exclusion NG 3 - Mod of JL - D3] (Eterna round: R96, puzzle: Exclusion NG 3)
31.4

Value lookup for apparent KD of MS2 coat protein; key = CUCAUGUGAGGAUAUGUGAUCUGCUUUCUGUGUAGAUGAUCACAGAAGGCACAUGAGGAUCACCCAUGUAGAUC [Ex4 - 3 - 28] (Eterna round: R96, puzzle: Exclusion 4)
93.9

Value lookup for apparent KD of MS2 coat protein; key = UACAUGAGGAUCACCCAUGUUUUGUCGUGUAUGGUAUUUAUCUAGGAUAUCAAGUUAUUUAUUUAUGAGAAGGAGAAUAUUAAU [JMF's solution 10] (Eterna round: R96, puzzle: Exclusion NG 3)
30.7

Value lookup for apparent KD of MS2 coat protein; key = AAGAUGCGGAUAGGAUAUGGAAAGAAGGAAAGACCAGAAGGAUUGGUCAUAUAACAUGAGGAUCACCCAUGUAUAUGUUGUGAA [AK ExNG1-3.1] (Eterna round: R96, puzzle: Exclusion NG 1)
13
